biological target: T1, TDP-216 peptide (human); experiment: indirect ELISA, 8-mer peptide library
T1 construct: 8-mer of human TDP-43; same ELISA method as for the biotinylated 15-mers
T1 peptide: DVMDVFIP
quantity.kind: binding result

[[record]]
binder = "ACI-7062-415C4-Ab1 (antibody, IgG1, V domains shown, also called 415C4C6; clone 14) VH: QVTLKESGPGILQPSQTLSLTCSFSGFSLSTYGIGVGWIRQPSGKGLEWLAHIWWNDNKYYKTALKSRLTISKDTSNNQVFLKIASVDTADSATYYCARVYGNLYYFGYWGQGTTLTVSS VL: DVLMTQTPLSLPVSLGDQASISCRSSQSIVHSTGNTYLEWYLQKPGQSPKLLIYKVSNRFSGVPDRFSGSGSGTDFTLKISRVEAEDLGVYYCFQGSRVPTFGAGTKLELKR"
recorded_result = "no binding"

[[record]]
binder = "ACI-7062-406E3-Ab1 (antibody, IgG2a, V domains shown, also called 406E3D5; clone 5) VH: QVTLKESGPAILQPSQTLSLTCSFSGFSLTTYGIGVGWIRQPSGKGLEWLAHIWWNDNKYYNTALKSRLTVSKDTSNNQVFLKIASVDTADTATYYCARVYGNLYYFAYWGQGTTLTVSS VL: DVLMTQTPLSLPVSLGDRASISCRSSQSIVHRSGNTYLEWYLQKPGQSPKLLIYKVSNRFSGVPDRFSGSGSGTDFTLKISRVEAEDLGVYYCFQGSHVPTFGAGTKLELKR"
recorded_result = "no binding"


Attribution: patent US20220025023A1
